- Target System: hT1R1/hT1R3 umami receptor (Homo sapiens, UniProt Q7RTX0+Q7RTX1)
- Construct: expressed in transfected cells; host or cells: HEK293 derivative stably expressing Gα15, clone I-17, expression induced with mifepristone
- Sequence (Q7RTX1 21-841): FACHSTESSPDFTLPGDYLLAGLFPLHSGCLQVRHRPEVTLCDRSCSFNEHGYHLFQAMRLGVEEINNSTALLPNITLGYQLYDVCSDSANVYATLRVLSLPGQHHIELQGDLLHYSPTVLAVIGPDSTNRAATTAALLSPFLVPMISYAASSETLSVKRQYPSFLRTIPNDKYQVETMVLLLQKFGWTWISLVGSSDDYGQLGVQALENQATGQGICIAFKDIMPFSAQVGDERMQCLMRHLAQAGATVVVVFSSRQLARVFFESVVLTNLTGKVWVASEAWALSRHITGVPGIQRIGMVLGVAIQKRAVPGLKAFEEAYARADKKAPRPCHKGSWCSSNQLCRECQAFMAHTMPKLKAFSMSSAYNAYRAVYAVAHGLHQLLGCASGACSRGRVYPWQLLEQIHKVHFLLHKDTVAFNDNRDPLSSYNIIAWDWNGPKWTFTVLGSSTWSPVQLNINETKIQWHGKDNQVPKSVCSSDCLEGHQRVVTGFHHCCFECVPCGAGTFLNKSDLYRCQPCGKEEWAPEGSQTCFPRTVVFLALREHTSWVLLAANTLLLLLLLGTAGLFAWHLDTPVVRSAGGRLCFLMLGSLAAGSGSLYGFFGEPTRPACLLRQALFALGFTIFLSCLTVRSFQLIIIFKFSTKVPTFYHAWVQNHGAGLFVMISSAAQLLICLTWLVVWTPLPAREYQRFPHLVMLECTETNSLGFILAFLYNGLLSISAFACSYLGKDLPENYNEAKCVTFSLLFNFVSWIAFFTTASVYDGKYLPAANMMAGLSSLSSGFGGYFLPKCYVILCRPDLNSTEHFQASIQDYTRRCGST
- Sequence (Q7RTX0 21-852): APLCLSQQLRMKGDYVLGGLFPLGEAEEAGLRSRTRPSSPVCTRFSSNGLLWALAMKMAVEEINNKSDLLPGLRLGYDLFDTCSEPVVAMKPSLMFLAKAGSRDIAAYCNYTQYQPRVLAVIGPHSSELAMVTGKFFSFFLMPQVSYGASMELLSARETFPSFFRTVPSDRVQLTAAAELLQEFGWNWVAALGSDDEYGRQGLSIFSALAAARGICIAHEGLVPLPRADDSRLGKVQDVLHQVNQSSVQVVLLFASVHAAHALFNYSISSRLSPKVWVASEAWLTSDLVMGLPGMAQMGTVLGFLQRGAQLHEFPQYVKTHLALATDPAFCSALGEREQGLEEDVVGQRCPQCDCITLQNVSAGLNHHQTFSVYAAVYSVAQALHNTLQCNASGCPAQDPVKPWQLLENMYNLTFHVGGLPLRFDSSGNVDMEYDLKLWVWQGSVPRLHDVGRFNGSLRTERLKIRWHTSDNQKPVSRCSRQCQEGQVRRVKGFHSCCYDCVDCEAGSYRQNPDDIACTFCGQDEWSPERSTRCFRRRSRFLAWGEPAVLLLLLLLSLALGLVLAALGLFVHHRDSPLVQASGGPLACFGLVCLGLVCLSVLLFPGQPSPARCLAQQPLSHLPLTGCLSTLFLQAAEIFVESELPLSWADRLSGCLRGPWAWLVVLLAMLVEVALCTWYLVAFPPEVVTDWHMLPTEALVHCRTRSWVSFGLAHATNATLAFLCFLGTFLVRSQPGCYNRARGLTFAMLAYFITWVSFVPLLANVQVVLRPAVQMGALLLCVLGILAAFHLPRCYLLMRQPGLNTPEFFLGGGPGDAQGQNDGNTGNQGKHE
- Measurement Notes: In vitro hT1R1/hT1R3 umami taste receptor activation assay (FLIPR, dose response)
- Type: cell-based
- Details: Table A, Umami Amides; read-out: Umami EC50
Assay Endpoint: EC50 (nM)

Study these solved cases before continuing.
• CCCC(CC(C)C)NC(=O)c1cc2cc(C)ccc2o1 (centres unmarked) = 1320
• CCCC(CCC)NC(=O)c1cc(OC)nc(OC)n1 = 220
• Cc1cc(C(=O)N[C@H]2CCc3ccccc32)ccc1O = 660

1: CCCC(CCC)NC(=O)c1cccc(OC)c1O
2: COC(=O)C(CC(C)C)NC(=O)c1cc2ccccc2o1 (stereo in doubt)
Lookup: Larger number for EC50: 1 , or 2 ? Your choice should be expressed through its label.
Found: 1

----------
- Target System: hT1R1/hT1R3 umami receptor (Homo sapiens, UniProt Q7RTX0+Q7RTX1)
- Construct: expressed in transfected cells; host or cells: HEK293 derivative stably expressing Gα15, clone I-17, expression induced with mifepristone
- Measurement Notes: In vitro hT1R1/hT1R3 umami taste receptor activation assay (FLIPR, dose response)
- Type: cell-based
- Details: Table C, Umami Ureas; read-out: Umami EC50
pEC50: −log10 of the molar value.
Assay Endpoint: pEC50

* CC(NC(=O)Nc1ccccc1Cl)C1CCCCC1 (stereo not drawn) | 6.08
* CCCC(CCC)NC(=O)Nc1ccc2c(c1)OCO2 | 6.27
* CC1CCCCC1NC(=O)Nc1ccccc1Cl (stereo not drawn) | 6.28
* CCC(NC(=O)Nc1ccc(Cl)cc1Cl)c1ccccc1 (stereo not drawn) | 6.31

P: Cc1ccc(NC(=O)N[C@@H](C)C(C)C)c(Cl)c1
Q: O=C(Nc1ccccc1F)NC1CCCc2ccccc21 (stereo not drawn)
Lookup: Could you point out whether the larger pEC50 belongs to P or to Q ? Let me know the label of the one you choose.
Found: P

----------
- Target System: hT1R1/hT1R3 umami receptor (Homo sapiens, UniProt Q7RTX0+Q7RTX1)
- Construct: expressed in transfected cells; host or cells: HEK293 derivative stably expressing Gα15, clone I-17, expression induced with mifepristone
- Measurement Notes: In vitro hT1R1/hT1R3 umami taste receptor activation assay (FLIPR, dose response)
- Assay type: cell-based
- Details: read-out: EC50 for activation of a hT1R1/hT1R3 umami receptor expressed in an HEK293 cell line
pEC50: −log10 of the molar value.
Assay Endpoint: pEC50

- COCC(NC(=O)c1ccc(C)c(C)c1)C(C)C (centres unmarked) [Example 73]: 6.06
- COC[C@@H](CC(C)C)NC(=O)c1ccc2c(c1)OCO2 [Example 9]: 5.46
- COc1ccc2c(c1)CCC2NC(=O)c1ccc(OC)c(C)c1 (racemic) [Example 121-2]: 7.10
- O=C(NCCc1ccccn1)C(=O)NCc1cccc2c1OCCO2 [Example 137]: 6.52

I: CSc1ccccc1CNC(=O)C(=O)NCCc1ccccn1 [Example 147]
II: COc1ccc([C@@H](C)NC(=O)c2ccc(OC)c(C)c2)cc1 [Example 117]
III: COc1ccc(C(=O)N[C@H](CC(C)C)c2nc(C)no2)cc1C [Example 55]
Lookup: Falling order of pEC50, please. # output: labels, in the requested order
Found: I, II, III
(I: 6.02, II: 5.55, III: 5.27)

a: O=C(NCCc1ccccn1)C(=O)NCc1cc2ccccc2s1 [Example 150]
b: O=C(NC1CCc2ccccc21)c1ccc2c(c1)OCO2 (centres unmarked) [Example 118]
Lookup: Pick one: a or b . Which has the bigger pEC50 number? Mark your selection by writing its label.
Found: a
(a: 6.13, b: 5.92)

Values compiled from patent US20060045953A1.
